- Tested on: Candida albicans
- assay-text: Antifungal activity against Candida albicans NCIM 3100 at 10 ug/ml
- Assay type: functional
- assay-context: read-out: IZ
zone of inhibition at 10 µg/mL: recorded values
Give just the numeric value; mm need not be written.

{"compound": "CCOC(=O)C1=C(C)N=c2s/c(=C\\c3ccc(-c4ccc(Cl)cc4Cl)o3)c(=O)n2C1c1ccc(SC)cc1 (stereo not drawn)", "target-system": "Candida albicans", "display-unit": "mm", "zone of inhibition at 10 µg/mL": 20}
{"compound": "CCOC(=O)C1=C(C)N=c2s/c(=C\\c3ccc(-c4ccc([N+](=O)[O-])cc4)o3)c(=O)n2C1c1ccc(SC)cc1 (stereo not drawn)", "target-system": "Candida albicans", "display-unit": "mm", "zone of inhibition at 10 µg/mL": 12}

# return recorded zone of inhibition at 10 µg/mL for input CCOC(=O)C1=C(C)N=c2s/c(=C\c3ccc(O)cc3)c(=O)n2C1c1ccc(SC)cc1 (stereo not drawn)
10

# return recorded zone of inhibition at 10 µg/mL for input CCOC(=O)C1=C(C)N=c2s/c(=C\c3ccc4c(c3)OCO4)c(=O)n2C1c1ccc(SC)cc1 (stereo not drawn)
11

# return recorded zone of inhibition at 10 µg/mL for input CCOC(=O)C1=C(C)N=c2s/c(=C\c3ccc(Cl)cc3Cl)c(=O)n2C1c1ccc(SC)cc1 (stereo not drawn)
12

====

MIC: recorded values
- Test system: Aspergillus fumigatus
- assay-text: Antifungal activity against Aspergillus fumigatus NCIM 902 by dilution method
- Assay type: functional
Give just the numeric value; µg/mL need not be written.

Please review the entries below; each comes with its answer.
{"compound": "CCOC(=O)C1=C(C)N=c2s/c(=C\\c3ccc(-c4ccc([N+](=O)[O-])cc4)o3)c(=O)n2C1c1ccc(SC)cc1 (centres undefined)", "MIC / µg/mL": 12.5}
{"compound": "CCOC(=O)C1=C(C)N=c2s/c(=C\\c3ccc(F)cc3)c(=O)n2C1c1ccc(SC)cc1 (centres undefined)", "MIC / µg/mL": 6}
{"compound": "CCOC(=O)C1=C(C)N=c2s/c(=C\\c3ccc(-c4ccc(Cl)cc4)o3)c(=O)n2C1c1ccc(SC)cc1 (centres undefined)", "MIC / µg/mL": 12.5}

Turning now to a further compound:
# return recorded MIC for input CCOC(=O)C1=C(C)N=c2s/c(=C\c3ccc(-c4ccc(Cl)cc4Cl)o3)c(=O)n2C1c1ccc(SC)cc1 (centres undefined)
12.5

====

- System: Staphylococcus aureus
- assay-text: Antibacterial activity against Staphylococcus aureus ATCC 25923
- Type: functional
MIC: recorded values
Give just the numeric value; µg/mL need not be written.

{"molecule": "CCOC(=O)C1=C(C)N=c2s/c(=C\\c3ccc(Cl)cc3Cl)c(=O)n2C1c1ccc(SC)cc1 (stereo unspecified)", "experimental-readout": "MIC", "measured-value": 12.5}
{"molecule": "CCOC(=O)C1=C(C)N=c2s/c(=C\\c3ccc4c(c3)OCO4)c(=O)n2C1c1ccc(SC)cc1 (stereo unspecified)", "experimental-readout": "MIC", "measured-value": 25}
{"molecule": "CCOC(=O)C1=C(C)N=c2s/c(=C\\c3ccc(-c4ccc(Cl)cc4Cl)o3)c(=O)n2C1c1ccc(SC)cc1 (stereo unspecified)", "experimental-readout": "MIC", "measured-value": 12.5}
{"molecule": "CCOC(=O)C1=C(C)N=c2s/c(=C\\c3ccc(SC)cc3)c(=O)n2C1c1ccc(SC)cc1 (stereo unspecified)", "experimental-readout": "MIC", "measured-value": 25}
{"molecule": "CCOC(=O)C1=C(C)N=c2s/c(=C\\c3ccc(O)cc3)c(=O)n2C1c1ccc(SC)cc1 (stereo unspecified)", "experimental-readout": "MIC", "measured-value": 25}

Turning now to a further molecule:
# return recorded MIC for input CCOC(=O)C1=C(C)N=c2s/c(=C\c3ccc(-c4ccc(Cl)cc4)o3)c(=O)n2C1c1ccc(SC)cc1 (stereo unspecified)
25
